assay: IANBD-channel fluorescence artefacts in buffer – biochemical, artefact control for cardiac RTF calcium sensitizer project, confirmation (AID 504382); details: IANBD fluorescence interference counterscreen, EC20 Ca2+, at 7.2 µM, active compounds read high, scaled: EC20 calcium 0, EC100 calcium 100
The whole screen tested about 2,500 compounds, of which about 460 (18%) were called active. The list is a sample of the results.
Please provide measured fluorescence artifact activation for the entries that follow.
Reply with just the number (in %).

Q) So what does the record say about fluorescence artifact activation for Cc1cc(C)nc(NS(=O)(=O)c2ccc(NC(=O)CSc3nc4ccccc4[nH]3)cc2)n1 ?
A) 0.03

Q) So what does the record say about fluorescence artifact activation for O=c1c2ccccc2cnn1Cc1n[nH]c(=S)n1-c1ccccc1Cl ?
A) 2.78

Q) So what does the record say about fluorescence artifact activation for Cc1ccccc1C(=O)NCCCc1ccccc1 ?
A) 0.02

Q) So what does the record say about fluorescence artifact activation for CC(=O)c1nnn(-c2cccc(C#N)c2)c1C ?
A) 0.2

Q) So what does the record say about fluorescence artifact activation for COc1ccc(CCNC(=O)C2CC(c3c(Cl)cccc3Cl)=NO2)cc1 (stereo unspecified) ?
A) -0.04

Q) So what does the record say about fluorescence artifact activation for COc1ccc(OC)c(/C=C2\N=C(c3ccccc3)OC2=O)c1 ?
A) 8.78

* * *

Please provide measured fluorescence artifact activation for the entries that follow.
assay: IANBD-channel fluorescence artefacts in buffer – biochemical, artefact control for cardiac RTF calcium sensitizer project, confirmation (AID 504382); conditions: IANBD fluorescence interference counterscreen, EC20 Ca2+, at 7.2 µM, active compounds read high, scaled: EC20 calcium 0, EC100 calcium 100
Screen size: about 2,500 compounds; about 460 (18%) were called active. Only a sample is shown.
Reply with just the number (in %).

Q) So what does the record say about fluorescence artifact activation for COCCN1C(=O)/C(=C/c2ccc(N3CCCC3)cc2C)SC1=S ?
A) 0.17

Q) So what does the record say about fluorescence artifact activation for O=C(C1=NN(c2ccccc2)C2C(=O)N(c3cccc(Cl)c3)C(=O)C12)c1ccccc1 (stereo not given) ?
A) 9.7

Q) So what does the record say about fluorescence artifact activation for CCNC(=S)NNC(=O)CCn1cc(C)cn1 ?
A) -0.01

Q) So what does the record say about fluorescence artifact activation for CCOC(=O)C1(CCc2ccccc2)CCN(C(=O)c2occc2C)CC1 ?
A) 3.37

Q) So what does the record say about fluorescence artifact activation for CCCCNc1nc(-c2ccccc2)nc(-n2ccnc2)n1 ?
A) 1.09

Q) So what does the record say about fluorescence artifact activation for Cc1ccc(C(=O)N(C)CC(=O)Nc2cccc(F)c2)cc1S(=O)(=O)N1CCCCC1 ?
A) 0.72

Q) So what does the record say about fluorescence artifact activation for COc1ccc(-c2nc(/C=C3\C(C)=Nc4ccccc43)c(O)o2)cc1 ?
A) 1.03

Q) So what does the record say about fluorescence artifact activation for CC(C)(C)C(=O)c1sc2nc(-c3cccs3)cc(C(F)(F)F)c2c1N ?
A) 0.13

Q) So what does the record say about fluorescence artifact activation for C[C@@H](NC(=O)c1ncn(C)c1C(=O)N[C@H](C)c1ccccc1)c1ccccc1 ?
A) 0

Q) So what does the record say about fluorescence artifact activation for O=C(CSC1CC(=O)N(c2ccc(C(=O)O)cc2)C1=O)Nc1ccc2ccccc2c1 (stereo not given) ?
A) 0.06

From: PubChem BioAssay AID504382
